Numbers sourced from ChEMBL document CHEMBL4038300.

Target: UniProt P21917
Sequence (P21917 whole entry): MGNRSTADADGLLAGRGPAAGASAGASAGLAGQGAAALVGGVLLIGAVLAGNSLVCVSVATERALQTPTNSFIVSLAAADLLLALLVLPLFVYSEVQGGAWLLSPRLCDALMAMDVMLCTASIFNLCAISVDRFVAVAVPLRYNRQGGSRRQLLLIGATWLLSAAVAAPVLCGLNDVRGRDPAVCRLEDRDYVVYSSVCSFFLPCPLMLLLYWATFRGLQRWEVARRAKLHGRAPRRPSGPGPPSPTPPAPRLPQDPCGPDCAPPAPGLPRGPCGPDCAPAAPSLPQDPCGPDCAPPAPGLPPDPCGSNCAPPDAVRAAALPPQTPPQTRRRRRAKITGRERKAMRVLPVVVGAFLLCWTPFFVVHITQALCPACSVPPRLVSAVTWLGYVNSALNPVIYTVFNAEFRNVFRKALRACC
Ki reference
quantityMeasured: Ki (nM)

[[record]]
molecule = "NS(=O)(=O)c1ccc(N2CCN(CC[C@@H]3OCCc4ccccc43)CC2)cc1 [SONEPIPRAZOLE]"
targetundertest = "UniProt P21917"
quantitymeasured = "Ki"
quantitativereadout = 3.6

[[record]]
molecule = "CC(C)Oc1cccnc1N(C)C1CCN(Cc2ccc(I)cc2)CC1"
targetundertest = "UniProt P21917"
quantitymeasured = "Ki"
quantitativereadout = 0.33

[[record]]
molecule = "c1ccc(OCC2CN(Cc3c[nH]c4ccccc34)CCO2)cc1 (centres undefined)"
targetundertest = "UniProt P21917"
quantitymeasured = "Ki"
quantitativereadout = 5.6

[[record]]
molecule = "COc1ccc(Cl)cc1OC[C@@H]1CN(Cc2ccc(Cl)cc2)CCO1"
targetundertest = "UniProt P21917"
quantitymeasured = "Ki"
quantitativereadout = 2.8

